// compounds with pKi on Histone deacetylase 4 (Homo sapiens), multi-source literature
Sequence (P56524 whole entry): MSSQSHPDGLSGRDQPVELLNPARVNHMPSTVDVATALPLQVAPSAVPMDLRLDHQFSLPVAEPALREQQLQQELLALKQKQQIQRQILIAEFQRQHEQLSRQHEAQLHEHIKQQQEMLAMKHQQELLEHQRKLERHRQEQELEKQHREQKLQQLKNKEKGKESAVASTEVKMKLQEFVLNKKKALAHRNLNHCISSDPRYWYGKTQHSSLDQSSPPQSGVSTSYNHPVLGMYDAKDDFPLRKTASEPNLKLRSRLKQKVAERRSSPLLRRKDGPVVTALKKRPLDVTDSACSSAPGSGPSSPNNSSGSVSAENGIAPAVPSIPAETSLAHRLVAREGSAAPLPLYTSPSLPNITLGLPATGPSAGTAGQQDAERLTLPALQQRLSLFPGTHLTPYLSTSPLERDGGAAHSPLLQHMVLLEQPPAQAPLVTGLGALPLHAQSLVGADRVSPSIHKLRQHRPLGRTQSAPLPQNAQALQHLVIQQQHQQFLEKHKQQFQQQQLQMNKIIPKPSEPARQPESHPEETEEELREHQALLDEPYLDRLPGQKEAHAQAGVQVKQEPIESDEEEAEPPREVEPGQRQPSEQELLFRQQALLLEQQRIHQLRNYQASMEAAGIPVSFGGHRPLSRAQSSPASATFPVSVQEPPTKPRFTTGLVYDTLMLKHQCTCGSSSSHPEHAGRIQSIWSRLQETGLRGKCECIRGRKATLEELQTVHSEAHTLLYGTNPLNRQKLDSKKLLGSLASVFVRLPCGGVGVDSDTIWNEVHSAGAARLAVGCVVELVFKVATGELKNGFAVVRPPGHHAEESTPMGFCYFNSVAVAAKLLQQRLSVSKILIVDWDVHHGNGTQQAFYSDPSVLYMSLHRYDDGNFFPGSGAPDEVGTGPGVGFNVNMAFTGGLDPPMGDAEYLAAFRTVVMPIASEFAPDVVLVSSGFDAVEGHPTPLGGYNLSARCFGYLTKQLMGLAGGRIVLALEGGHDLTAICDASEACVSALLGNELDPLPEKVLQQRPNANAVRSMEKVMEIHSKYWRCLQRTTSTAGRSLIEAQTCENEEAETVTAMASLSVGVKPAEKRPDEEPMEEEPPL
Notebook: values listed as pKi are -log10 of the concentration (mol/L).

Ask: Return reported pKi. Input compound: CN1CCC(CNC(=O)c2cccc(C(=O)NO)c2)(c2nc(-c3ccccc3)cs2)CC1
Reply: 4.62

Ask: Return reported pKi. Input compound: CC/C=C\CCc1nc2cc(/C=C/C(=O)NO)ccc2n1CCNCC
Reply: 8.62

Ask: Return reported pKi. Input compound: CCCCCCc1nc2cc(/C=C/C(=O)NO)ccc2n1CCNC(C)C
Reply: 8.18

Ask: Return reported pKi. Input compound: O=C(/C=C/c1ccc2c(c1)nc(CCc1ccccc1)n2CCN1CCCC1)NO
Reply: 8.07

Ask: Return reported pKi. Input compound: O=C(CCCCCNC(=O)NC(=O)c1ccc(Br)cc1)NO
Reply: 8.22

Ask: Return reported pKi. Input compound: O=C(/C=C/C#Cc1cccc(NS(=O)(=O)c2ccccc2)c1)NO
Reply: 5.69
